# assay_explanation: soluble on expression in E. coli; label from the status in PepcDB or PDB records

sequence_chain	soluble on expression in E. coli
SNAMITKAIYPGTFDPITNGHLDLVTRASAMFSHVILAIADSSSKKPMFTLDERVALAKKVTAPLKNVEVLGFSELMAEFAKKHNANILVRGLRSVSDFEYEWQLANMNRHLMPKLESVFLIPSEKWSFISSSLVKEVARHGGDITPFLPKPVTKALLAKLA	soluble
METRREERIGQLLQELKRSDKLHLKDAAALLGVSEMTIRRDLNNHSAPVVLLGGYIVLEPRSASHYLLSDQKSRLVEEKRRAAKLAATLVEPDQTLFFDCGTTTPWIIEAIDNEIPFTAVCYSLNTFLALKEKPHCRAFLCGGEFHASNAIFKPIDFQQTLNNFCPDIAFYSAAGVHVSKGATCFNLEELPVKHWAMSMAQKHVLVVDHSKFGKVRPARMGDLKRFDIVVSDCCPEDEYVKYAQTQRIKLMYLEHHHHHH	soluble

---

# assay_explanation: soluble on expression in E. coli; label from the status in PepcDB or PDB records

sequence_chain	soluble on expression in E. coli
MSLNEESFEEFSMVLEDDLVGGTFSKVGEHNKRENEDFYITKDILDLNNVSESQGLCFYSGIFDGHGGSNCARYVMNHLKTNVIAKFRQSFLITCKKKFKEKGSKLNELSVELRALYDSCIKGFDMTDKNYIELSKKYNYKDGSTACIVLIYGPDDDGSLKVLCANCGDSGAFICHNKKPIKLSLRHKPDLQEERIRILKCGGIIANINGINRIITKHKDRNNLNENNNNKSKEKTFLALSTSRSFGDISYKIPRKIVQCKPFISVYTIDFDLDSFLVLATDGILNVLSDEEIIDIIWKNIHRKPEQAAEEVVNEATRRGSTDDKTCTVIFFYWRKEGHHHHHH	soluble
MAGDPMLLTGTLKREAGNKMGQKPKIAIFGGGTGLSVLLRGLKHKPVDITAIVTVADDGGSSGRLRNELKIPPPGDIRNVLAALSDVEPLVEDLFQHRFNKGNDLTGHSLGNLILAAMTNITGDFFHAVTEMSKVLNVRGKVLPAANASVVLHAEMEDGRVVSGESTIPEYGQRIKRVFLTPEQIDPLPETIDVIREADLIIIGPGSLYTSILPNLLVPKIGEEVIKAPAKKVYICNVMTQPGETLHYTAADHVKALNQHMGCGFIDTILVNSEDIPDEIKRKYEMESARPVDFDIEELKAMGLEVIRDQIVTYKNDVIRHDTHKVASLLVDLLKELEHHHHHH	soluble
MGSDKIHHHHHHMQLPNLQSATLLRRYKRFLADVELNNGEILTLHCANTGAMTGCGEKGDTVWFSTSDSKTRKYPHSWELTQLKNGQTVCINTHRSNQLTLEALQNKIITELAEYDEILPEVKYGVENSRIDFLLKGKNLPDCYVEVKSVTFVKNHLGLFPDAVTTRGQKHLRELIAMKKRGHRAVVFFAGLHDGFNRFTVAKSIDPDYAELLQQAVKEGVEVYSYAVKFDFSHQKPTALYLTNLVNYLE	not soluble
MANEMKVFLLTKQGQEVMERQRKKQVLLSDPKAVYQDHFVSVRPDCLVVKKYFIPSMLPFEFHWDKIETMTYLPQNNENKLLVPNRGQDQEGRWWATDVLRPHERELHLYNVRIDVADTEPSKSGFTVIHIDQFLKSCRHLLPYSCKLSGCVWSE	not soluble
MALIGRQTTIQMIDLEPELPTQKDYQSDILRELTQIRNENLEYNRLEVYVLELEQIMRIRMIVDLLDLGGRLNSETLLQMCYRLVNQETDLENLRNFRDSQFAQEEQRRDRLREIGQRIFNRFEQQQEEAAGNREGSEAGERPSKENIEFRIWRFLSVLQHQDGLERLDELEREIAVRREMNAADQFQEGQDFFARINPDIVAEGIPHHNNRDNIPIERQYRTEFIQLANDLQSPPDDVRLDVFRRLIDLGVQFQESRLEQDRQRIQEEPQRQREGEIMDQLNDSVKGDMRRLNPMAPGNASGNIQQEGAGIETDVDVDDELEDEYSGSDSSQDVEEVPEESSERYVADTGSATNQPSSSTSEPNAGNEEVEDPSQRTRKRGNGSELSDAKRTN	soluble
MLNHIVMWKIKEDVEDKEKVKLGIKNGLEGLFGKIEELREIRVERFMESTSTHDVALFVKVDNEDTLKKYATNPLHVEIIKNYIKPFVYDRVCIDFFELEHHHHHH	not soluble

Cited source for all entries: the DeepSol protein solubility set
